# reported TGI; entries follow
Test system: OVCAR-5 ovarian
Experiment Description: NCI tumour cell line growth inhibition, 48 h

- Molecule: "O=C(Cl)c1cc([N+](=O)[O-])cc([N+](=O)[O-])c1"
  TGI: "> 100 µM"
- Molecule: "CC(=O)NC1C(=O)CC(c2ccccc2)N(C)C1c1ccccc1 (configuration not stated)"
  TGI: "> 100 µM"
- Molecule: "COC(=O)C(I(OS(=O)(=O)c1ccc(C)cc1)c1ccccc1)=P(c1ccccc1)(c1ccccc1)c1ccccc1"
  TGI: "73.1 µM"
- Molecule: "Cc1nn(C(=O)CC(=O)Nc2ccccc2Cl)c(C)c1N=Nc1ccccc1Cl"
  TGI: "> 100 µM"
- Molecule: "Cc1ccc(S(=O)(=O)NC2(C=O)CCC(C(C)(C)C)CC2)cc1 (configuration not stated)"
  TGI: "> 100 µM"
- Molecule: "O=C1N[C@@H](c2c[nH]c3ccc(Br)cc23)C(=O)N[C@H]1c1c[nH]c2ccc(Br)cc12"
  TGI: "28.8 µM"
- Molecule: "CC(=O)CC(=O)Nn1c(-c2cccs2)nc2ccc(I)cc2c1=O"
  TGI: "> 100 µM"

###

Test system: K-562 leukemia
Experiment Description: NCI tumour cell line growth inhibition, 48 h
Items are presented alongside their recorded TGI.

- Compound: "C[N+](C)([O-])Cc1cccc(NC(=O)c2ccc(C(=O)Nc3cccc(C[N+](C)(C)[O-])c3)cc2)c1"
  Experimental System: "K-562 leukemia"
  TGI: "> 100 µM"
- Compound: "COc1cccc2c(NNc3ccc(Cl)cc3)c3ccc([N+](=O)[O-])cc3nc12"
  Experimental System: "K-562 leukemia"
  TGI: "97.2 µM"
- Compound: "O=C1c2cccc3cc4ccccc4c(c23)C(=O)N1CCCNCCNCCCN1C(=O)c2cccc3cc4ccccc4c(c23)C1=O"
  Experimental System: "K-562 leukemia"
  TGI: "0.337 µM"
- Compound: "Cn1c(N)cc(=O)nc1N"
  Experimental System: "K-562 leukemia"
  TGI: "> 100 µM"
- Compound: "Cc1ccc(S(=O)(=O)c2ccccn2)cc1"
  Experimental System: "K-562 leukemia"
  TGI: "> 100 µM"
- Compound: "COc1ccc2nccc(C3OC(=O)N4CCC(=O)CC34)c2c1 (stereo unspecified)"
  Experimental System: "K-562 leukemia"
  TGI: "> 100 µM"

###

System: NCI-H23 lung
Experiment Description: NCI tumour cell line growth inhibition, 48 h
This section presents molecules with their documented TGI values.

- Molecule: "O=C(C(=O)n1ccc2ccccc21)c1c[nH]c2ccccc12"
  TGI: "> 10 µM"
- Molecule: "COC(=O)C(I(OS(=O)(=O)c1ccc(C)cc1)c1ccccc1)=P(c1ccccc1)(c1ccccc1)c1ccccc1"
  TGI: "34.1 µM"
- Molecule: "N#Cc1ccc(NC(=NCC(=O)O)Nc2ccc3ccccc3c2)cc1"
  TGI: "> 10 µM"
- Molecule: "CC(C)(C)OC(=O)N1CC(COS(C)(=O)=O)c2ccc(O)cc21 (stereo unspecified)"
  TGI: "3.05 µM"
- Molecule: "COc1ccc(C2CC(c3ccc(OC)c(OC)c3)=NN2C(=O)c2cc(OC)c(OC)c(OC)c2)cc1 (stereo unspecified)"
  TGI: "> 100 µM"
- Molecule: "CCOc1ccccc1Nc1nc(C)c(C(=O)CC(=O)C(=O)Nc2ccccc2)s1"
  TGI: "> 100 µM"
- Molecule: "CC(C)OP(=O)(OC(C)C)c1ncn(-c2ccc([N+](=O)[O-])cc2)n1"
  TGI: "> 100 µM"
- Molecule: "CCOc1c(OC)cc(CNNc2nccs2)cc1OC"
  TGI: "> 100 µM"
- Molecule: "O=C(C(Cl)=C(Nc1ccccc1)Nc1ccccc1)C(Cl)Cl"
  TGI: "93.2 µM"
- Molecule: "O=C(NC(c1ccccc1)C(O)C(=O)OCc1ccc2c(c1)C(=O)c1ccccc1C2=O)c1ccccc1 (stereo unspecified)"
  TGI: "34.5 µM"
- Molecule: "Nc1n[nH]c(=O)c2c1c(Br)cn2C1OC(CO)C(O)C1O (stereo unspecified)"
  TGI: "25 µM"

###

System: NCI/ADR-RES ovarian
Experiment Description: NCI tumour cell line growth inhibition, 48 h
# TGI per record follows
Experimental Readout: TGI

- Compound: "C[N+]12C=CC=C1C(N1CCCC1)c1sc(-c3ccc(Cl)cc3)cc12 (configuration not stated)"
  Experimental Value: "> 100 µM"
- Compound: "COc1cc(C2c3cc4c(c(O)c3C(=O)C3CCC(=O)N32)OCO4)cc(OC)c1OC (configuration not stated)"
  Experimental Value: "> 100 µM"
- Compound: "COC(=O)c1cc2c([nH]c3ccccc32)c(-c2nc3cc(N(S(=O)(=O)c4ccc(C)cc4)S(=O)(=O)c4ccc(C)cc4)c(OC)cc3cc2CO)n1"
  Experimental Value: "> 100 µM"
- Compound: "COc1cc(OC)cc(N(C)Cc2cnc3nc(N)nc(N)c3c2C)c1"
  Experimental Value: "> 100 µM"
- Compound: "O=S(=O)(CC#CCS(=O)(=O)c1ccccc1)c1ccccc1"
  Experimental Value: "> 83 µM"
- Compound: "CCOc1c(OC)cc(CNNc2nccs2)cc1OC"
  Experimental Value: "> 100 µM"
- Compound: "O=C(CN1C(=O)c2ccccc2C1=O)NC1(C(=O)O)CCCC1"
  Experimental Value: "> 100 µM"
